Kindly state TGI for each of the entries shown.
# System: SK-OV-3 ovarian
# TEST: NCI tumour cell line growth inhibition, 48 h

IN: Consider the compound shown here: C=C1CC2(CC(c3ccccc3Cl)OC(c3ccccc3Cl)C2)OC1=O (stereo unspecified) What is its recorded TGI?
OUT: 16.9 µM

IN: Can you share its TGI? I mean this compound: Cc1cccc(-n2c(N)c(-c3nc4ccccc4[nH]3)sc2=S)c1
OUT: 91.7 µM

IN: // query TGI value for entry COc1c(C)cc2c(C(C)C)c(O)c(O)c(C=O)c2c1O
OUT: > 100 µM

IN: Entry under review: CC12C3C4C1C1C2C3C41CO (stereo unspecified) . Reported TGI?
OUT: > 100 µM

IN: Quick check: TGI of BrC(Br)=C1C(=C(Br)Br)C(Br)C1Br (stereo unspecified) ?
OUT: 12.7 µM

IN: If you can, please state the reported TGI value of O=P1(c2ccccc2)c2ccccc2-c2ccccc21 .
OUT: > 100 µM

IN: What measured TGI goes with O=c1oc2ccc(I)cc2c(=O)n1-c1ccc(F)cc1F ?
OUT: 4.17 µM

IN: // TGI lookup, key: CC(=O)OC(CC1(C)C(C)CCC23COC(=O)C2=CCCC31)c1ccoc1 (stereo unspecified)
OUT: > 100 µM

IN: What measured TGI goes with Cc1ccc(C(=O)Nc2ccc(CP(=O)(O)O)cc2)cc1NC(=O)c1cccc(N)c1 ?
OUT: > 100 µM

IN: Look up TGI: CC(Oc1ccccc1Cl)C(=O)NN1C(=O)CC(=O)N(c2ccccc2)C1=S (stereo unspecified)
OUT: > 100 µM

IN: Field request: TGI | item: O=C(Nc1cccc2c1C(=O)c1c(NC(=O)c3ccccc3)ccc(Nc3cccc4c3C(=O)c3ccccc3C4=O)c1C2=O)c1ccccc1
OUT: > 100 µM

###

Can you tell me TGI for the items I'm about to list?
# System: DLD-1 colon
# TEST: NCI tumour cell line growth inhibition, 48 h

IN: Data request, read-out TGI, for O=C(Nc1cccc2c1C(=O)c1c(NC(=O)c3ccccc3)ccc(Nc3cccc4c3C(=O)c3ccccc3C4=O)c1C2=O)c1ccccc1
OUT: > 100 µM

IN: Name the recorded TGI for CCOC(=O)CC1COc2ccc3c(c21)OCO3 (stereo not given) .
OUT: > 100 µM

IN: Entry under review: N#CC12CCC1C1CCCCC12N1CCSCC1 (stereo not given) . Reported TGI?
OUT: > 100 µM

IN: // returns reported TGI for input N/N=C1\C(=O)N(Cc2ccccc2)C(=O)C1C(=O)NCc1ccccc1 (stereo not given)
OUT: > 100 µM

IN: So what's the measured TGI for this one? CN1CN(C2OC(CO)C(O)C2O)c2nc(N)[nH]c(=O)c21 (stereo not given)
OUT: > 100 µM

IN: Entry COc1ccc(C2=NN(c3ccccc3)C[N+](c3ccc(C)cc3)=N2)cc1 : reported TGI = ?
OUT: > 100 µM

IN: I am curious: what TGI value has been reported for COc1cc(C2c3cc4c(cc3[C@@H](Nc3cccc(CO)c3)C3COC(=O)[C@H]23)OCO4)cc(OC)c1O (stereo not given in full) ?
OUT: 4.56 µM

IN: Which TGI is listed for Cc1c2ccn(O)cc2c(C)c2c1nc1ccccc12 ?
OUT: > 100 µM

IN: # input molecule: COc1cc(/C=C(\NC(=O)c2ccccc2)c2nc3ccc4c(c3[nH]2)C(=O)c2ccccc2C4=O)cc(OC)c1OC ; wanted: its TGI
OUT: > 100 µM

IN: Please report the recorded TGI for BrC(Br)=C1C(=C(Br)Br)C(Br)C1Br (stereo not given) .
OUT: 1.98 µM

###

# Test system: RPMI-8226 leukemia
# TEST: NCI tumour cell line growth inhibition, 48 h
ASSAY METRIC: TGI (µM)
Answer with a number only, understood to be in µM.

IN: Find the recorded TGI belonging to O=C1C=CC2OC(c3ccccc3)C(O)C2O1 (stereo unspecified) and report it.
OUT: 7.65

IN: Quick one: TGI for CC1=C2CC(C)(C)/C=C\C(=O)/C(C)=C\C3=C[C@H](C)C[C@]3(O2)C1=O ?
OUT: 1.51

IN: TGI for CN(C)CCN1C(=O)c2cccc3cc([N+](=O)[O-])cc(c23)C1=O ?
OUT: 10.2

IN: // returns reported TGI for input COc1ccc(/C=C/C(=O)/C=C/c2ccc(OC)cc2OC)c(OC)c1
OUT: 18.6

IN: Could you tell me which TGI is on file for CC(=O)OC1CCC2(C)C(CCC3C2CC(=O)C2(C)C3CC(N3CC3)C2C(C)=O)C1 (stereo unspecified) ?
OUT: 83.6

IN: Item CSCS(=O)C[C@H](CO)NC(=O)/C=C/c1c(C)[nH]c(=O)[nH]c1=O (stereo partly specified) has what recorded TGI?
OUT: 6.71

IN: Data request, read-out TGI, for COc1ccccc1Cc1ccc(C2C=CC3(CC(=O)C=C3C)C(=O)C2)o1 (stereo unspecified)
OUT: 39.2

IN: What value of TGI has been reported for the following compound? CC(=O)/C(=C/c1ccccc1)C(=O)CC(C)C
OUT: 98.2

IN: Which TGI value belongs to CN(C)CCCN(CCC1CCCCC1)CCC1CCCCC1 ?
OUT: 3.86

###

# Tested on: K-562 leukemia
# TEST: NCI tumour cell line growth inhibition, 48 h
ASSAY METRIC: TGI

IN: Item CCCCN1CCCC[C@@H]1C(=O)N[C@H](C(=O)N(C)[C@H](C[C@@H](OC(C)=O)c1nc(C(=O)NC2CCC(C(=O)OC)CC2)cs1)C(C)C)C(C)C (stereo partly drawn) has what recorded TGI?
OUT: > 25 µM

IN: Quick one: TGI of O=C1CSC(=S)N1c1ccco1 ?
OUT: > 100 µM

IN: # query: TGI of entry C=C(CN1CCN(c2ccc(C(F)(F)F)cc2)CC1)c1ccc(C(=O)Nc2ccccc2N)cc1
OUT: > 36.5 µM

IN: Record request: TGI value, item Oc1ccc(O)c(-c2cn3c(n2)SCC3)c1
OUT: > 100 µM

IN: Give the measured TGI of Cc1ccc(C(=O)Nc2ccc(CP(=O)(O)O)cc2)cc1NC(=O)c1cccc(N)c1 .
OUT: > 100 µM

IN: Quick check: TGI of CCCCOC(=O)c1ccc(N)cc1 ?
OUT: > 100 µM

IN: Need TGI, item COc1ccc(OC)c(NCC(=O)Nn2cnc3ccc(S(=O)(=O)Nc4cc(OC)ccc4OC)cc3c2=O)c1
OUT: > 100 µM

IN: Report TGI for N#CC(N=Nc1ccccc1C(=O)O)C(N)=O (stereo not drawn) please.
OUT: > 100 µM

IN: Value lookup for TGI; key = Cc1c(C)c(C)c(Cn2[nH]c(=O)n(C)c2=O)c(C)c1C
OUT: > 100 µM

IN: Looking for the measured TGI of N#CCc1c(-c2ccccc2)n(S(=O)(=O)c2ccccc2)c2ccccc12 , can you help?
OUT: > 100 µM

IN: Quick check: TGI of CCOC(=O)C(=O)C=P(c1ccccc1)(c1ccccc1)c1ccccc1 ?
OUT: > 100 µM

IN: # input compound: C=C1C(=O)O[C@H]2[C@H]1CC/C(COC(=O)NCc1c[nH]c3ccccc13)=C\CC[C@@]1(C)O[C@@H]21 ; wanted: its TGI
OUT: 12.6 µM

IN: If you can, please state the reported TGI value of COc1cc2c(c(OC)c1OC)C(=O)[C@@H]1[C@H]2N1C(=O)NCCCl .
OUT: > 100 µM

IN: What value of TGI has been reported for the following compound? N/N=C1\C(=O)N(Cc2ccccc2)C(=O)C1C(=O)NCc1ccccc1 (stereo not drawn)
OUT: > 100 µM

IN: Item NNC(=O)CC(=O)Nc1cccc(Cl)c1 has what recorded TGI?
OUT: > 100 µM

IN: Can you look up the measured TGI of COC(=O)c1ccc2c(c1)C(=O)c1c-2n(CCCCl)c(=O)c2cc([N+](=O)[O-])ccc12 for me?
OUT: > 100 µM

IN: TGI lookup needed for O=C1c2ccccc2C(=O)N1CCSCC(CO)SCCN1C(=O)c2ccccc2C1=O (stereo not drawn) , thanks.
OUT: > 100 µM

IN: Look up TGI: NC(N)=NS(=O)(=O)c1ccc(N/N=C2/CCOC2=O)cc1
OUT: > 100 µM

IN: Which measured TGI value corresponds to O=C(O)[C@H](Cc1c[nH]c2ccccc12)N1C(=O)c2ccccc2C1=O ?
OUT: > 100 µM

IN: Return reported TGI; argument: O=c1[nH]c2ccccc2c2nc3ccccc3n12
OUT: > 100 µM

IN: What measured TGI goes with COc1cc(Oc2c(C)c(Cl)c(OC)c(Cl)c2OC)c2c(c1Cl)COC2=O ?
OUT: 8.51 µM

IN: Need TGI of COc1cc(CSc2ccc(O)cc2)cc(OC)c1OC , thanks.
OUT: > 100 µM

IN: Endpoint output: TGI of COc1cccc(C23CCCC(C2)NCC3Br)c1OC (stereo not drawn) . Value?
OUT: > 100 µM

IN: // lookup TGI for CC(O)C1(CNc2cc(Cl)nc(N)n2)CCCCC1 (stereo not drawn)
OUT: > 100 µM

IN: Form field: reported TGI of N#CC1(C#N)NC(c2ccccc2)C(C#N)(C#N)NC1c1ccccc1 (stereo not drawn)
OUT: > 100 µM

IN: Dear colleague, I am looking for the recorded TGI of the following compound: O=C(CC1(O)C(=O)N(Cc2ccccc2)c2ccc(Cl)cc21)c1ccc(C(=O)NCC2CCC3(CC2)OOC2(CCCCC2)OO3)cc1 (stereo not drawn)
OUT: > 100 µM

IN: Value lookup for TGI; key = O=C(O)C[C@@H](Cl)[C@H](NC(=O)OCc1ccccc1)C(=O)O
OUT: > 100 µM

IN: # input compound: CSc1c(C2=C(c3cn(C)c4ccccc34)C(=O)NC2=O)c2ccccc2n1C ; wanted: its TGI
OUT: > 25 µM

IN: Quick check: TGI of CC(=O)Nc1cc2cc(N)ccc2oc1=O ?
OUT: > 100 µM

IN: TGI lookup needed for COc1ccc([N+](=O)[O-])c2c(NCCCN(C)C)ccnc12 , thanks.
OUT: 5.73 µM

IN: Report TGI for O=C/C1=C/C2=Cc3ccccc3C=C(/C=C(/C=O)C1)C2 please.
OUT: > 100 µM

IN: Entry O=S(=O)(CCN1CCOCC1)Nc1cc(-c2ccc3ncnc(Nc4ccc(F)c(Cl)c4)c3c2)cnc1Cl has what TGI?
OUT: > 100 µM

IN: Field request: TGI | item: Cc1cccc(-n2c(N)c(-c3nc4ccccc4[nH]3)sc2=S)c1
OUT: > 100 µM

IN: Any idea what TGI was measured for COc1cccc(/C=C/C(=O)c2ccc(SC)cc2)c1OC ?
OUT: 64.2 µM

IN: Which TGI value is on record for CCOC(=O)C(=O)Nc1nc2c(OCC)cccc2s1 ?
OUT: > 100 µM

IN: What value of measured TGI is listed for CCOC(=O)CC1COc2ccc3c(c21)OCO3 (stereo not drawn) ?
OUT: > 100 µM

IN: Record request: TGI value, item Cc1ccc(C2(c3ccc(Cl)cc3)c3ccccc3C3=NCCN32)cc1 (stereo not drawn)
OUT: > 100 µM

IN: Report TGI for O=c1c2ccccc2[nH]n1Cc1ccccc1 please.
OUT: > 100 µM

IN: What does the data say about its TGI? Entry: C1CSCCSCCCSC2CCCCC2SC1 (stereo not drawn)
OUT: > 100 µM

IN: Need TGI, item CCOC(=O)C1SC(=Nc2ccc(OC)c(OC)c2)N=C1C (stereo not drawn)
OUT: > 100 µM

IN: Field request: TGI | item: COc1cc(C(=O)O[C@H](C(=O)NCCCNC(=O)[C@@H](OC(=O)c2cc(OC)cc3c(C)cccc23)[C@]2(C)CO2)[C@]2(C)CO2)c2cccc(C)c2c1
OUT: 0.923 µM

IN: Data request, read-out TGI, for COc1cc(C2C3=C(COC3=O)Oc3cc4c(cc32)OCO4)ccc1O (stereo not drawn)
OUT: > 100 µM

IN: Data request, read-out TGI, for CCC[CH2][Sn]([CH2]CCC)([O]c1cccc2cccnc12)[O]c1cccc2cccnc12
OUT: 0.523 µM

Origin of the recorded values: PubChem BioAssay (NCI)
